- run-parameters: 328.15 K; 101.33 kPa; Liquid; Capillary tube (Ostwald / Ubbelohde) method
Structures can show the parent of a compound that is named as a salt.
measured-property: viscosity (mPa·s)

{"molecule": "CCOC(=O)CC(O)(CC(=O)OCC)C(=O)OCC [triethyl citrate]", "measured-property": "viscosity", "quantitative-result": 7.23}
{"molecule": "CCCCOC(=O)C(C)O (centres undefined) [butyl 2-hydroxypropanoate]", "measured-property": "viscosity", "quantitative-result": 1.55}

(1) CC(=O)OCC(COC(C)=O)OC(C)=O [glyceryl triethanoate]
(2) CCOC(=O)CC(CC(=O)OCC)(OC(C)=O)C(=O)OCC [triethyl acetyl citrate]
**Q:** Among 1 and 2 , which shows a numerically higher viscosity result? Lab note: record the label of whichever item you select.
**A:** 2

* * *

- run-parameters: 303.15 K; 101.33 kPa; Liquid; Pycnometric method
Structures can show the parent of a compound that is named as a salt.
measured-property: mass density (kg/m3)

{"compound": "CCOC(=O)CC(CC(=O)OCC)(OC(C)=O)C(=O)OCC [triethyl acetyl citrate]", "mass density (kg/m3)": 1133.1}
{"compound": "CC(=O)OCC(COC(C)=O)OC(C)=O [glyceryl triethanoate]", "mass density (kg/m3)": 1147.4}
{"compound": "CCOC(=O)CC(O)(CC(=O)OCC)C(=O)OCC [triethyl citrate]", "mass density (kg/m3)": 1131.1}
{"compound": "CCCCOC(=O)C(C)O (centres undefined) [butyl 2-hydroxypropanoate]", "mass density (kg/m3)": 973.1}

* * *

- run-parameters: 318.15 K; 101.33 kPa; Liquid; Capillary tube (Ostwald / Ubbelohde) method
Counter-ions that a name gives are not always drawn.
measured-property: viscosity (mPa·s)

Solved entries:
{"compound": "CC(=O)OCC(COC(C)=O)OC(C)=O [glyceryl triethanoate]", "quantitative-result": 6.75}
{"compound": "CCOC(=O)CC(CC(=O)OCC)(OC(C)=O)C(=O)OCC [triethyl acetyl citrate]", "quantitative-result": 13.81}

(1) CCCCOC(=O)C(C)O (centres undefined) [butyl 2-hydroxypropanoate]
(2) CCOC(=O)CC(O)(CC(=O)OCC)C(=O)OCC [triethyl citrate]
**Q:** Which gives the smaller viscosity number: 1 or 2 ? Lab note: record the label of whichever item you select.
**A:** 1

* * *

- run-parameters: 308.15 K; 101.33 kPa; Liquid; Capillary tube (Ostwald / Ubbelohde) method
Counter-ions that a name gives are not always drawn.
measured-property: viscosity (mPa·s)

{"molecule": "CCOC(=O)CC(CC(=O)OCC)(OC(C)=O)C(=O)OCC [triethyl acetyl citrate]", "measured-property": "viscosity", "units-text": "mPa·s", "quantitative-result": 25.1}
{"molecule": "CCCCOC(=O)C(C)O (centres undefined) [butyl 2-hydroxypropanoate]", "measured-property": "viscosity", "units-text": "mPa·s", "quantitative-result": 2.42}

(I) CCOC(=O)CC(O)(CC(=O)OCC)C(=O)OCC [triethyl citrate]
(II) CC(=O)OCC(COC(C)=O)OC(C)=O [glyceryl triethanoate]
**Q:** Which gives the smaller viscosity number: I or II ? Lab note: record the label of whichever item you select.
**A:** II
(II: 9.95 mPa·s, I: 16.55 mPa·s)

* * *

- run-parameters: 318.15 K; 101.33 kPa; Liquid; Pycnometric method
Structures can show the parent of a compound that is named as a salt.
measured-property: mass density (kg/m3)

{"molecule": "CCCCOC(=O)C(C)O (centres undefined) [butyl 2-hydroxypropanoate]", "mass density (kg/m3)": 958.5}
{"molecule": "CCOC(=O)CC(CC(=O)OCC)(OC(C)=O)C(=O)OCC [triethyl acetyl citrate]", "mass density (kg/m3)": 1118.5}
{"molecule": "CCOC(=O)CC(O)(CC(=O)OCC)C(=O)OCC [triethyl citrate]", "mass density (kg/m3)": 1116.5}
{"molecule": "CC(=O)OCC(COC(C)=O)OC(C)=O [glyceryl triethanoate]", "mass density (kg/m3)": 1131.1}
